Sourced from PubChem BioAssay

- measurement.protocol: COS7 lysate on small-molecule microarray, probe aHis, 635 nm (AID 1123);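 note: z-score combines 667nm fluorescence intensity with signal-to-noise per printed compound spot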
- condition: COS7 cell lysate, fluorescence, higher = more signal
Assign condition met to entries whose composite z-score meets or exceeds 0.9; assign condition not met to the rest.

Use these answered entries as a reference point.
>>> qualitative_label("CCC[C@@H]1C=C(C(=O)O)[C@H](c2ccc(C)cc2)N1S(=O)(=O)c1ccc(C)cc1")
"condition met"
>>> qualitative_label("CCCC[C@H]1OB(O)C[C@H]2C1=C(C)C[C@H]1C(=O)N(Cc3ccccc3)C(=O)[C@H]12")
"condition not met"
>>> qualitative_label("C#CCN(C(/C=C/c1ccccc1)CO)C(C(=O)O)c1ccccc1 (stereo not drawn)")
"condition not met"
>>> qualitative_label("COCCOC(=O)N1C(=O)[C@@]2(c3cc(C#CCNC(N)=O)ccc31)[C@H](c1ccc(O)cc1)N1[C@H](c3ccccc3)[C@H](c3ccccc3)OC(=O)[C@H]1[C@@H]2C(=O)Nc1nc2ccccc2s1")
"condition met"
>>> qualitative_label("CC(C)NC(=O)[C@@H]1c2ccccc2C(=O)N(Cc2ccccc2Cl)[C@H]1c1ccc(CO)cc1")
"condition met"

(Q) Test whether the compound "COC(=O)[C@@]1(Cc2ccccc2)[C@H]2c3cc(C(=O)N(C)C)n(Cc4c(-c5ccccc5)noc4C)c3C[C@H]2CN1C(=O)c1ccccc1" records composite z-score of 0.9 or higher.
(A) condition met

(Q) Test whether the compound "C=C(COC)C(=O)CC[C@H](OC(C)=O)c1cccc(OCCO)c1" records composite z-score of 0.9 or higher.
(A) condition not met

---

- measurement.protocol: basal 3T3-L1 adipocyte mitochondrial potential changes, profiling panel, cell-based, JC-1 fluorescence, 3T3-L1 adipocytes, 24 h, 100 nL compound (AID 1168); note: test concentration not given here
- condition: JC-1 mitochondrial fluorescence, higher = more signal, called active from +8 up or from −8 down
The following molecules are shown together with reported z-score values.
Keep the answer to the number alone.

Worked examples, 4 molecules total:
>>> reported_measurement("O=C1N(CCS(=O)(=O)c2ccccc2)Cc2ccccc2C[C@]12N=C(c1ccc(OCCCO)cc1)O[C@@H]2c1ccccc1")
0.603
>>> reported_measurement("[N-]=[N+]=NCc1ccccc1C[C@]1(C(=O)NCCN2CCOCC2)N=C(c2ccc(OCCCO)cc2)O[C@H]1c1ccccc1N=[N+]=[N-]")
0.707
>>> reported_measurement("CCCCC(CC)C(O)C1C=CC2C(=O)N(c3ccccc3)C(=O)C2N1Nc1ccccc1 (stereo not given)")
0.633
>>> reported_measurement("COC(=O)[C@@]1(Cc2ccc(OC)cc2)[C@H]2c3cc(C(=O)N4CCCC4)n(Cc4cc(F)cc5c4OCOC5)c3C[C@H]2CN1C(=O)c1ccccc1")
-0.562

(Q) Quote z-score reported for "CCCCC=C[C@@H](NC(=O)c1ccc(C(=O)OC)cc1)c1ccccc1" please.
(A) -0.346

(Q) Quote z-score reported for "COc1ccc(CCNC(=O)[C@@]2(c3ccc([N+](=O)[O-])cc3)CC(=O)N(CC34CC5CC(CC(C5)C3)C4)[C@@H]2c2ccc(CO)cc2)cc1" please.
(A) -0.626

(Q) Quote z-score reported for "O=c1oc(-c2ccccc2)nc2cc(Br)ccc12" please.
(A) 0.67

---

- measurement.protocol: basal S. cerevisiae growth modulation, no modifier, primary screen, OD600, strain BY4716, 24 h, basal condition (AID 1173)
- condition: OD600, 24 h, higher = more signal, called active from +8 up or from −8 down
The following compounds are shown together with reported z-score values.
Keep the answer to the number alone.

>>> reported_measurement("O=C1O[C@H](c2ccccc2)[C@H](c2ccccc2)N2[C@H]1[C@@H](C(=O)O)[C@]1(C(=O)Nc3ccc(C#CC4=CCCCC4)cc31)[C@H]2c1ccc(OCCO)cc1")
0.0899
>>> reported_measurement("COCCOC(=O)N1C(=O)[C@@]2(c3ccccc31)[C@H](C(=O)NC[C@H](O)c1ccccc1)[C@H]1C(=O)O[C@H](c3ccccc3)[C@H](c3ccccc3)N1[C@@H]2c1ccc(OCCO)cc1")
1.42
>>> reported_measurement("CCOC(=O)C[C@H]1[C@H](OC(=O)c2ccc(C(=O)c3ccccc3)cc2)[C@@H](NC(=O)C2CCCCC2)c2cc(OCCCO)ccc2N1C(=O)c1ccccc1")
-0.153
>>> reported_measurement("CC(C)(C)N1CC=CC23O[C@@H]4C=CCOC(=O)[C@@H]4[C@H]2C(=O)N(CCCCCO)[C@@H]3C1=O (some centres undefined)")
0.285
>>> reported_measurement("C=CC[C@]1(C(=O)N2CCOCC2)N=C(c2ccc(OCCCO)cc2)O[C@H]1c1ccccc1")
-1.4
>>> reported_measurement("COC(=O)c1ccc(OC)c(/C=C\\CC(OC(C)=O)c2ccccc2)c1 (centres undefined)")
-1.17
>>> reported_measurement("CCOC(=O)[C@H]1C[C@H]2O[C@@]23C[C@H]1C(=O)N1CCCC1[C@@H]3O[Si](C)(C)C(C)(C)C (some centres undefined)")
-4.67
>>> reported_measurement("CN1C=C(C(=O)OCCS(C)(=O)=O)C(C(=O)OCCS(C)(=O)=O)=CC(CCCO)=CC1C1CC1 (centres undefined)")
-2.11

(Q) Quote z-score reported for "CCOC(=O)C[C@H]1[C@H](OC(=O)c2ccc(-c3ccccc3)cc2)[C@@H](NC(=O)Cc2ccc(OC)cc2)c2cc(OCCCO)ccc2N1C(=O)c1ccc2ccccc2n1" please.
(A) -0.533

(Q) Quote z-score reported for "C=CCOC(=O)[C@H]1[C@@H]2C(=O)O[C@@H](c3ccccc3)[C@@H](c3ccccc3)N2[C@@H](c2ccc(OCCOC(=O)[C@@H]3C[C@@H]4C(=O)NCC(=O)N4[C@@H]3c3ccc(O)cc3)cc2)[C@]12C(=O)Nc1ccccc12" please.
(A) -0.0301

(Q) Quote z-score reported for "Cc1ccc([C@H]2C(C(=O)O)=C[C@@H](C)N2S(=O)(=O)c2ccc(C)cc2)cc1" please.
(A) -0.704

(Q) Quote z-score reported for "[N-]=[N+]=NCc1ccccc1C[C@]1(C(=O)O)N=C(c2ccc(OCCCO)cc2)O[C@H]1c1ccccc1CN=[N+]=[N-]" please.
(A) -3.5

(Q) Quote z-score reported for "COc1ccc(CCNC(=O)[C@@]2(c3ccc([N+](=O)[O-])cc3)CC(=O)N(CC34CC5CC(CC(C5)C3)C4)[C@@H]2c2ccc(CO)cc2)cc1" please.
(A) -0.125

(Q) Quote z-score reported for "COC(=O)[C@@]1(Cc2ccccc2)[C@H]2c3cc(C(=O)N4CCCC4)n(Cc4ccc(C)o4)c3C[C@H]2CN1C(=O)c1ccccc1" please.
(A) 0.476
